Measured values drawn from patent US4918174A for this set.

# ASSAY: solubility
# Assay type: physicochemical
# MEASUREMENT_PARAMETERS: benzene
MEASURED_METRIC: solubility in benzene

>  <MOLECULE>
CCc1c(Cl)c(O)c(Cl)c(O)c1C(=O)OC1C(C)OC(OCC2=CC=CCC(O)C(C)=CC(CC)C(OC3OC(C)(C)C(O)C(O)C3OC(=O)C(C)C)C(C)=CC(C)=CCC(C(C)O)OC2=O)C(OC)C1O (stereo not drawn)

>  <RECORDED_MEASUREMENT>
sparingly soluble

$$$$
>  <MOLECULE>
CCC(=O)OC1C(OC2C(C)=CC(C)=CCC(C(C)O)OC(=O)C(COC3OC(C)C(OC(=O)c4c(O)c(Cl)c(O)c(Cl)c4CC)C(O)C3OC)=CC=CCC(O)C(C)=CC2CC)OC(C)(C)C(O)C1O (stereo not drawn)

>  <RECORDED_MEASUREMENT>
sparingly soluble

$$$$
>  <MOLECULE>
CCc1c(Cl)c(O)c(Cl)c(O)c1C(=O)OC1C(O)C(C)OC(OCC2=CC=CCC(O)C(C)=CC(CC)C(OC3OC(C)(C)C(O)C(O)C3OC(=O)C(C)C)C(C)=CC(C)=CCC(C(C)O)OC2=O)C1OC (stereo not drawn)

>  <RECORDED_MEASUREMENT>
sparingly soluble

$$$$
>  <MOLECULE>
CCc1c(Cl)c(O)c(Cl)c(O)c1C(=O)OC1C(C)OC(OCC2=CC=CCC(O)C(C)=CC(CC)C(OC3OC(C)(C)C(O)C(OC(=O)C(C)C)C3O)C(C)=CC(C)=CCC(C(C)O)OC2=O)C(OC)C1O (stereo not drawn)

>  <RECORDED_MEASUREMENT>
sparingly soluble

$$$$
>  <MOLECULE>
CCc1c(Cl)c(O)c(Cl)c(O)c1C(=O)OC1C(C)OC(OCC2=CC=CCC(O)C(C)=CC(CC)C(OC3OC(C)(C)C(OC(=O)C(C)C)C(O)C3O)C(C)=CC(C)=CCC(C(C)O)OC2=O)C(OC)C1O (stereo not drawn)

>  <RECORDED_MEASUREMENT>
sparingly soluble

$$$$

* * *

# ASSAY: solubility
# Assay type: physicochemical
# MEASUREMENT_PARAMETERS: methanol

>  <COMPOUND>
CCc1c(Cl)c(O)c(Cl)c(O)c1C(=O)OC1C(C)OC(OCC2=CC=CCC(O)C(C)=CC(CC)C(OC3OC(C)(C)C(O)C(OC(=O)C(C)C)C3O)C(C)=CC(C)=CCC(C(C)O)OC2=O)C(OC)C1O (stereo not drawn)

>  <solubility in methanol>
readily soluble

$$$$
>  <COMPOUND>
CCc1c(Cl)c(O)c(Cl)c(O)c1C(=O)OC1C(C)OC(OCC2=CC=CCC(O)C(C)=CC(CC)C(OC3OC(C)(C)C(O)C(O)C3OC(=O)C(C)C)C(C)=CC(C)=CCC(C(C)O)OC2=O)C(OC)C1O (stereo not drawn)

>  <solubility in methanol>
readily soluble

$$$$
>  <COMPOUND>
CCC1CC=C(C)C=C(C)C(OC2OC(C)(C)C(OC(C)=O)C(O)C2O)C(CC)C=C(C)C(O)CC=CC=C(C)C(=O)O1 (stereo not drawn)

>  <solubility in methanol>
readily soluble

$$$$

* * *

# ASSAY: solubility
# Assay type: physicochemical
# MEASUREMENT_PARAMETERS: methanol

>  <MOLECULE>
CCc1c(Cl)c(O)c(Cl)c(O)c1C(=O)OC1C(O)C(C)OC(OCC2=CC=CCC(O)C(C)=CC(CC)C(OC3OC(C)(C)C(O)C(O)C3OC(=O)C(C)C)C(C)=CC(C)=CCC(C(C)O)OC2=O)C1OC (stereo not drawn)

>  <solubility in methanol>
readily soluble

$$$$
>  <MOLECULE>
CCc1c(Cl)c(O)c(Cl)c(O)c1C(=O)OC1C(C)OC(OCC2=CC=CCC(O)C(C)=CC(CC)C(OC3OC(C)(C)C(OC(=O)C(C)C)C(O)C3O)C(C)=CC(C)=CCC(C(C)O)OC2=O)C(OC)C1O (stereo not drawn)

>  <solubility in methanol>
readily soluble

$$$$
>  <MOLECULE>
CCC(=O)OC1C(OC2C(C)=CC(C)=CCC(C(C)O)OC(=O)C(COC3OC(C)C(OC(=O)c4c(O)c(Cl)c(O)c(Cl)c4CC)C(O)C3OC)=CC=CCC(O)C(C)=CC2CC)OC(C)(C)C(O)C1O (stereo not drawn)

>  <solubility in methanol>
readily soluble

$$$$
